Experiment: inhibitors of Sendai virus-induced IRF3 signaling, primary screen, TLR/RLR signaling modifier project, cell-based, Sendai virus stimulus, luciferase, 10K MLSCN set (AID 602276);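 further: firefly luciferase from ISG56 promoter only with Renilla not read in this screen; 0% = Sendai virus plus DMSO and 100% = medium plus DMSO without virus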
Conditions: HEK293 RL24 IRF3 luciferase reporter, at 10 µM, stronger effect = higher value
Please note: 1 applies when inhibition is 10% or greater, and -1 applies otherwise.

Request: Is the recorded value of inhibition equal to or greater than 10% for this compound? C1CCC(C(CC2CCCCN2)C2CCCCC2)CC1 (stereo unspecified)
Response: 1

Request: Textbook exercise: given the entry COc1cccc(Cn2c(OCC3CCCO3)nc3c2c(=O)n(C)c(=O)n3C)c1 (stereo unspecified) , state whether its inhibition is greater than or equal to 10%.
Response: 1

Request: Exam item: decide whether the reported inhibition for `CNC[C@H](O)c1cccc(O)c1` is at least 10%.
Response: 1

Request: For this compound, is measured inhibition 10% or higher? OC(CCN1CCCC1)(c1ccccc1)C1CCCCC1 (stereo unspecified)
Response: -1

Request: Could you verify whether the entry `C=CCn1c(=S)[nH]c2nc3c(cc2c1=O)COC(C)(C)C3` shows inhibition of no less than 10%?
Response: 1

Request: Decide: inhibition of `Cc1cc(C)n(CC(=O)n2c3c(c4ccccc42)CCCC3)n1` >= 10%?
Response: -1

Request: Is it the case that `O=C(Nc1ccccn1)NC(C(F)(F)F)C(F)(F)F` has inhibition reaching or exceeding 10%?
Response: -1

Request: Evaluate `CN/C(=C/[N+](=O)[O-])NCCSCc1ccc(CN(C)C)o1` : inhibition at minimum 10%?
Response: 1

Request: Could you please find out whether CC[N+](C)(CC)CCOC(=O)C(O)(c1ccccc1)C1CCCCC1 (stereo unspecified) has inhibition that meets 10% or exceeds it?
Response: -1

Request: Dear colleague, could you confirm whether COc1ccc(/C(O)=C2\C(=O)C(=O)N(c3cc(C)on3)C2c2ccccc2OC)cc1 (stereo unspecified) has inhibition at or above 10%?
Response: -1

Request: Is inhibition at least 10%? Consider `Cc1cc(N2CCN(C3CCCC3)CC2)n2c(nc3ccccc32)c1C#N`
Response: 1
